Attribution: PubChem BioAssay

molecular target: Concanavalin-A (Canavalia ensiformis) (UniProt P02866); experiment: ConA small-molecule binders, primary screen, artefact control for SMM control protein annotation, biochemical, small-molecule microarray, Alexa647 label, 635 nm (AID 1127); settings: ConA-A647 binding fluorescence, higher = more signal;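 further: z combines 667 nm emission intensity with signal-to-noise across three replicate slides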
Sequence (P02866 whole entry, looked up): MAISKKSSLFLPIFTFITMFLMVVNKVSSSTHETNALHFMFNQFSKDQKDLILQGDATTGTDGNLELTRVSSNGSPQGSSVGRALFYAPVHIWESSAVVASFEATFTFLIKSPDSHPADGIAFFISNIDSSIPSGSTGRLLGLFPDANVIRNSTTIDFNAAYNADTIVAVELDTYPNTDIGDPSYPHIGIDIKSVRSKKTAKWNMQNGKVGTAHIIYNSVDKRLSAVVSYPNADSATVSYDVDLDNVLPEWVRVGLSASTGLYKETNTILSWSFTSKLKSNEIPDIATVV
metric.name: composite z-score

Here are 5 molecules together with their reported answers.
| molecule | observed.measurement |
| --- | --- |
| C=CCNC(=O)[C@@H]1[C@H]2C(=O)O[C@H](c3ccccc3)[C@H](c3ccccc3)N2[C@H](c2ccc(O)cc2)[C@@]12C(=O)Nc1ccc(C#CC3(O)CCCCCC3)cc12 | -0.197 |
| COC(=O)C1(CC(C)C)C=C2C(=C(C(C)C)C(=O)C2C)CN1 (configuration not stated) | -2.07 |
| NC(=O)NCC#Cc1ccc2c(c1)[C@]1(C(=O)N2)[C@H](C(=O)Nc2nc3ccccc3s2)[C@H]2C(=O)O[C@H](c3ccccc3)[C@H](c3ccccc3)N2[C@@H]1c1ccc(OCCO)cc1 | 0.318 |
| C=CCC(OC(C)=O)[C@@H]1[C@@H](N(Cc2ccc(-c3cccc(C(F)(F)F)c3)o2)C(=O)Cc2ccc(F)cc2)c2cc(OCCCO)ccc2N1C(=O)c1ccc2ccccc2n1 (some centres not stated) | -2.02 |
| C=CC[C@@]1(C(=O)N(C)C)N=C(c2ccc(OCCCO)cc2)O[C@@H]1c1ccccc1 | 0.148 |

## Task Tell me composite z-score reported for COC(=O)C1=CC(CCCO)=CC(C2CC2)N(Cc2cccc(OC(F)(F)F)c2)C=C1C(=O)OC (configuration not stated)
## Result 0.449

## Task Tell me composite z-score reported for "C=C(COC)C(=O)CC[C@@H](OC(=O)c1cccnc1)c1cccc(OCCO)c1"
## Result -0.095
